Test: MM1S myeloma cell viability, profiling panel, resazurin fluorescence, basal, 24 h, PK04 Diversity Set (AID 1174);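 note: MM1S multiple myeloma cell line; test concentration not given here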
Settings: higher = more signal, called active from +8 up or from −8 down
Quick rule: z-score of at least 1 means t, below that means f.

[[record]]
molecule = "COc1cc(Cc2cc3c(c(CCc4ccccc4)n2)[Si](C(C)C)(C(C)C)OC3)cc(OC)c1OC"
assigned_class = "f"

[[record]]
molecule = "C[C@H]1COC(=O)[C@H](Cc2ccccc2)NC(=O)[C@@H](C)COC(=O)[C@H](Cc2ccccc2)NC1=O"
assigned_class = "t"

[[record]]
molecule = "COC(=O)c1ccc(C#CC(NP(=O)(c2ccccc2)c2ccccc2)c2ccccc2)cc1 (stereo unspecified)"
assigned_class = "f"

[[record]]
molecule = "C=C[C@H](OC)[C@@H](OC(=O)Nc1ccc(SC)cc1)c1ccc(O)c(F)c1"
assigned_class = "f"

[[record]]
molecule = "CC(C)[Si](OCCCNS(=O)(=O)c1ccc(Br)cc1)(C(C)C)C(C)C"
assigned_class = "f"

[[record]]
molecule = "CSCC[C@@H]1NC(=O)CC=C[C@@H](C)COC(=O)[C@H](CCSC)NC(=O)CC=C[C@@H](C)COC1=O"
assigned_class = "f"

[[record]]
molecule = "C=CCN(C(=O)C1N(c2ccc(CCO)cc2)C(=O)C2C(C(=O)O)C3C=CC21O3)C(C)(C)C (stereo unspecified)"
assigned_class = "t"

[[record]]
molecule = "CCC#CCN(Cc1ccccc1Br)[C@H](/C=C/c1ccccc1)[C@@H](O)Cc1ccccc1"
assigned_class = "f"

[[record]]
molecule = "CCN1C(C)=C(C(=O)OC)[C@@H](c2ccccc2)N2C(=O)[C@@]3(C(=O)OC)O[C@@]12[C@@H]1C(=O)CCC[C@@H]13"
assigned_class = "t"

[[record]]
molecule = "O=C1C[C@@](C(=O)NCCN2CCOCC2)(c2ccc([N+](=O)[O-])cc2)[C@@H](c2ccc(CO)cc2)N1C1CCCCC1"
assigned_class = "f"

[[record]]
molecule = "CCCC=C(CCC)[C@@H](NS(=O)(=O)c1cccc(C(F)(F)F)c1)c1ccc(C(=O)OC)cc1"
assigned_class = "f"

[[record]]
molecule = "Cc1ccc(N2C(=O)c3ccccc3[C@](C)(C(=O)O)[C@@H]2c2ccc(CO)cc2)nc1"
assigned_class = "t"

[[record]]
molecule = "NC(=O)NCC#Cc1ccc2c(c1)[C@]1(C(=O)N2)[C@H](C(=O)N2CCCCCCC2)[C@H]2C(=O)O[C@H](c3ccccc3)[C@H](c3ccccc3)N2[C@@H]1c1ccccc1OCCO"
assigned_class = "t"

[[record]]
molecule = "CO[C@@H]1COC(=O)[C@H](COCc2ccccc2)NC(=O)CC=C[C@@H](C)[C@H](OC)COC(=O)[C@H](COCc2ccccc2)NC(=O)CC=C[C@H]1C"
assigned_class = "t"

[[record]]
molecule = "CO[C@H]1COC(=O)CC=C[C@H](C)[C@@H](OC)COC(=O)CC=C[C@@H]1C"
assigned_class = "t"


====

Test: modulators of HCV replicon luciferase signal, primary screen, HCV replication inhibitor project, Huh7 cells, luciferase reporter (AID 1109);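 note: huh7 hepatoma cells harbouring a luciferase neomycin HCV replicon reporter; luciferase luminescence as measure of HCV replicon replication; test concentration not given here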
Conditions: 48 h, higher = more signal
reported.property: z-score

[[record]]
molecule = "O=C(CS)NCCCCCNC(=O)[C@H]1C[C@H]2C(=O)N[C@@H](Cc3ccccc3)C(=O)N2[C@H]1c1ccc(O)cc1"
measured_number = -0.488

[[record]]
molecule = "COc1ccc(C(O)C2C=CC3C(=O)N(C)C(=O)C3N2N2CCCCC2)cc1OCc1ccccc1 (configuration not stated)"
measured_number = 0.421

[[record]]
molecule = "N#Cc1ccc(NN2C(C(O)CCc3ccccc3)C=CC3C(=O)N(c4ccccc4)C(=O)C32)cc1 (configuration not stated)"
measured_number = -0.123

[[record]]
molecule = "O=C1C2C=CC(C(O)c3ccccc3)N(n3cnnc3)C2C(=O)N1Cc1ccccc1 (configuration not stated)"
measured_number = 0.573

[[record]]
molecule = "NC(=O)NCC#Cc1ccc2c(c1)[C@]1(C(=O)N2)[C@H](C(=O)N2CCCCCCC2)[C@H]2C(=O)O[C@H](c3ccccc3)[C@H](c3ccccc3)N2[C@@H]1c1ccccc1OCCO"
measured_number = -1.54

[[record]]
molecule = "[N-]=[N+]=NCc1ccccc1C[C@@]1(C(=O)O)N=C(c2ccc(OCCCO)cc2)O[C@@H]1c1ccccc1N=[N+]=[N-]"
measured_number = -1.25

[[record]]
molecule = "COCCOC(=O)N1C(=O)[C@@]2(c3cc(C#CC4=CCCCC4)ccc31)[C@H](C(=O)NC[C@H](O)c1ccccc1)[C@H]1C(=O)O[C@H](c3ccccc3)[C@H](c3ccccc3)N1[C@@H]2c1ccccc1OCCO"
measured_number = -3.01

